Tested on: S. aureus Newman;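 also: OD595 on entry to stationary phase over no-drug wells; at most 1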
Test: fitness (endpoint OD595 vs no drug) (fraction); higher = more growth
Experimental Context: first compound 0.5 µg/mL; partner 0.0625 µg/mL
Below, each entry is listed with its recorded fitness.

Compound	Assay System	fitness
CC1=C(C(=O)O)N2C(=O)[C@@H](NC(=O)[C@H](N)c3ccccc3)[C@H]2SC1 [Cephalexin] + CO[C@@]12[C@H](COC(N)=O)C3=C(C(=O)C(C)=C(N)C3=O)N1C[C@@H]1N[C@@H]12 [Mitomycin C]	S. aureus Newman	0.577
CC[C@H]1OC(=O)[C@H](C)[C@@H](O[C@H]2C[C@@](C)(OC)[C@@H](O)[C@H](C)O2)[C@H](C)[C@@H](O[C@@H]2O[C@H](C)C[C@H](N(C)C)[C@H]2O)[C@](C)(O)C[C@@H](C)CN(C)[C@H](C)[C@@H](O)[C@]1(C)O [Azithromycin] + Cc1onc(-c2ccccc2)c1C(=O)N[C@@H]1C(=O)N2[C@@H]1SC(C)(C)[C@@H]2C(=O)O [Oxacillin]	S. aureus Newman	0.31
